Settings: buffer; pH 7.4; 200.0 µM
# class assignment by measured solubility kinetic: lower range = under 4 µg/mL, middle range = from 4 µg/mL up to 40 µg/mL, upper range = 40 µg/mL and over

Q. Class label required: "CCOC(=O)CNC(=O)c1sc(NC(=O)/C=C/c2ccccc2)nc1C"
A. lower range

Q. # bin label for "Cl.Nc1ccc(CCN2CCCC2)cc1"
A. middle range

Q. Hello team, could you let me know which band the following compound falls into: "Cn1c(=O)c2c(O)c(Cc3ccccc3)c(=O)n(C)c2n(C)c1=O"
A. middle range

Q. Which class holds "COc1ccc(Cl)cc1Nc1nc(-c2cccnc2)cs1" ?
A. lower range

Q. Hey, which category is "O=C(NCCN1CCOCC1)c1c(Cl)cccc1Cl" in, do you know?
A. upper range

Q. Into which bin does this compound go? "COC(=O)c1cc(NC(=O)c2cccnc2)cc(C(=O)OC)c1"
A. middle range

Q. Category of "Cn1c(SCC(=O)Nc2cccnc2Cl)nc2ccccc21" , please.
A. middle range

Q. Categorize the following entry: "CN1CCCN(C(=O)c2ccc(Br)s2)CC1"
A. upper range

Q. Sort into band: CC(=O)c1cc(CN2CCN(CC=C(C)C)C(CCO)C2)cs1 (centres undefined)
A. upper range

Q. Which band does "O=C(Nc1ccc(Br)cn1)C1CCN(S(=O)(=O)c2cccs2)CC1" fall in?
A. lower range

Q. Kindly state the category for this compound: "c1ccc(-c2cc3ccccc3[nH]2)cc1"
A. lower range

Q. For this compound, which bin applies? "CCn1cc(CCCC(=O)NCc2cccnc2)c2ccccc21"
A. upper range

Q. Dear colleague, I would appreciate it if you could identify the bin for "O=S(=O)(Nc1ncnc2sccc12)c1cccc(F)c1" and reply at your convenience.
A. upper range

Q. Kindly identify the class of CC1CN(S(=O)(=O)c2cc(C(=O)N(C)Cc3cccs3)ccc2Cl)CC(C)O1 (centres undefined) .
A. upper range

Q. Class label required: "Cc1cc(C(=O)O)ccc1NCc1cccnc1"
A. middle range

Q. # bin label for "COc1cccc(OC)c1C(=O)NCCOc1cc(C)cc(C)c1"
A. middle range

Q. GET /class?item= "Cc1c(C(=O)N(C)Cc2cccc(F)c2)oc2c(Cl)cccc12"
A. lower range

Q. Form field 'band' for "COc1cc(/C=C/C(=O)OCC(=O)Nc2cccc(F)c2)ccc1O"
A. middle range

Q. Which bin, given its solubility kinetic, does O=C(O)C1CCC(=O)N(C2CCCCC2)C1c1ccccc1Cl (centres undefined) occupy?
A. upper range

Q. Quick check: band for "O=C1N(Cc2ccc(F)cc2)CCN1c1ccc(F)cc1"
A. middle range

Q. Sort into band: "CCCCNC(=O)C1c2ccccc2Oc2ccccc21"
A. lower range

Q. Bin this entry: "CCCCCOc1ccccc1C(=O)NCCCCCC(=O)O"
A. upper range

Q. Form: Item = CC(=O)C1=C(O)C(=O)N(Cc2ccccc2)C1c1cccc([N+](=O)[O-])c1 (centres undefined) ; Class = ?
A. upper range

Q. Band for the recorded solubility kinetic of "Cc1cc(C)nc(NC(=O)/C=C/c2ccc(Cl)cc2)n1" ?
A. upper range

Q. Textbook exercise: identify the category of the compound given here, "Cc1cnc(NC(=O)Cc2ccccc2Cl)s1" , according to its measured value.
A. lower range

Q. Which category fits this record: "CCOc1ccccc1NC(=S)NCc1ccccc1"
A. middle range

Q. Hello team, could you let me know which band the following compound falls into: "O=C(Nc1ccc(Cl)c(S(=O)(=O)N2CCOCC2)c1)c1cccs1"
A. lower range

Q. Consider "Cc1ccc(S(=O)(=O)N2CCOCC2)cc1NC(=O)COC(=O)COc1ccccc1[N+](=O)[O-]" . To which solubility kinetic class does it belong?
A. upper range

Q. Band assignment needed for "O=C(Nc1ccc2ncccc2c1)c1ccccc1Br" please.
A. lower range

Q. Which class is correct for the following compound? "CN1CCN(C(=O)c2ccc(CNS(=O)(=O)c3ccc(F)c(Cl)c3)cc2)CC1"
A. upper range

Q. Record "O=C(Nc1cccc([N+](=O)[O-])c1)c1ccc2nsnc2c1" — which class?
A. lower range

Q. Pick a category. Item: "O=C(NC1CCN(C(=O)Nc2ccc(F)cc2)CC1)c1cccc(F)c1"
A. middle range

Q. Into which bin does this compound go? "COc1ccc(-c2noc(CN(C)Cc3ccccc3)n2)cc1"
A. middle range

Q. Pick a category. Item: "COc1ccc(C(=O)COC(=O)c2c(C)noc2C)cc1Cl"
A. lower range

Q. Please let me know in which category the item Cc1ccc(C)c(NC(=S)N2CCCCC2CO)c1 (centres undefined) belongs.
A. upper range

Q. Looking at "COc1cccc(N2CCN(C(=S)Nc3ccccc3)CC2)c1" , which class would you pick?
A. lower range

Q. # bin lookup: classify "CSc1nc(-c2ccccc2)nc(N2CCOCC2)c1C(C)=O" by its solubility kinetic
A. middle range

Q. Class (by measured solubility kinetic) for CC1CCc2ccccc2N1C(N)=Nc1ccccc1.Cl (centres undefined)
A. upper range

Q. Looking at CC(C(=O)N1CCc2ccccc21)N1CCN(Cc2ccccc2)CC1 (centres undefined) , which class would you pick?
A. upper range

Q. Kindly identify the class of "O=C(COc1ccc(S(=O)(=O)N2CCOCC2)cc1)NC1CC1" .
A. upper range

Q. Category of COc1ccc(N2C(=O)NC(NC(=O)C(C)(C)C)(C(F)(F)F)C2=O)cc1 (centres undefined) , please.
A. upper range

Q. Returns: class label. Input: "O=C(C[n+]1ccccc1)Nc1ccccc1C(F)(F)F.[Cl-]"
A. upper range

Q. Class label required: "COc1ccc(OC)c(NC(=O)N2CCc3ccccc3C2)c1"
A. upper range
